Biological target: recombinant human 5-HT5A receptor (Homo sapiens)
Construct: expressed in transfected cells; host or cells: HEK-EBNA (Human Embryonic Kidney-EBNA) cells, transient cDNA expression; membranes used
Sequence (P47898 whole entry): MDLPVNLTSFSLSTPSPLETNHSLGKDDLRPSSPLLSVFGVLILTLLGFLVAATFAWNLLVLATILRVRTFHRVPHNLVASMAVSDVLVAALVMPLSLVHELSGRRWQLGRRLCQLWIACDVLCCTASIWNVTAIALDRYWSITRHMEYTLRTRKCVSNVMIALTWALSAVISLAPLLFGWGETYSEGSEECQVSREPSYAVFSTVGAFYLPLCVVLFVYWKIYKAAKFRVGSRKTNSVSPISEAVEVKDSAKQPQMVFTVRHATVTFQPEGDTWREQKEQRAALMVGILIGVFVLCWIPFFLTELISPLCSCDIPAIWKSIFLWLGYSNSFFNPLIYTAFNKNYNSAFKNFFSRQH
Experiment: [3H]LSD radioligand binding assay
Settings: [3H]LSD (approximately 1 nM), membranes from HEK-EBNA cells transiently expressing 5-HT5A receptors; Ki from IC50 by Cheng-Prussoff equation
parameter-measured: Ki (nM)

Some entries whose results are on file:
compound	test-result
COCCOc1cccc2nc(N[C@@H]3CCc4ccccc43)ccc12 [Example 24]	90.6
COc1cccc2c1C(Nc1ccc3c(NCCSC)cccc3n1)CO2 (racemic) [Example 39]	25.2
O=C(Cc1ccc(Cl)cc1)Nc1cccc2nc(N[C@@H]3CCc4ccccc43)ccc12 [Example 60]	5.5
c1ccc2c(c1)CC[C@H]2Nc1ccc2c(N3CCOCC3)cccc2n1 [Example 4]	105
ON=C(c1cccc2nc(N[C@@H]3CCc4ccccc43)ccc12)C1CC1 [Example 31]	5.8
COc1cccc2c1C(Nc1ccc3c(N)cccc3n1)CC2 (racemic) [Example 19]	6.1
CNc1cccc2nc(N[C@@H]3CCc4ccccc43)ccc12 [Example 1]	22.5
COc1cccc2c1C(Nc1ccc3c(NS(=O)(=O)N(C)C)cccc3n1)CC2 (racemic) [Example 20]	2.3
O=C(Cc1ccc(F)cc1)Nc1cccc2nc(NC3CCc4cc(F)ccc43)ccc12 (racemic) [Example 48]	17.6
Nc1cccc2nc(NC3CCc4cc(F)ccc43)ccc12 (racemic) [Example 37]	12.5

1: CSCCNc1cccc2nc(N[C@@H]3CCc4ccccc43)ccc12 [Example 5]
2: O=C(Nc1cccc2nc(N[C@@H]3CCc4ccccc43)ccc12)C1CC1 [Example 22]
3: O=C(Cc1cccs1)Nc1cccc2nc(N[C@@H]3CCc4ccccc43)ccc12 [Example 46]
List these items ordered by Ki, big to small. Would you mind listing the labels in the order asked for? 2, 3, 1

1: CS(=O)(=O)CCNc1cccc2nc(N[C@@H]3CCc4ccccc43)ccc12 [Example 7]
2: Nc1cccc2nc(NC3Cc4ccccc4C3)ccc12 (racemic) [Example 23, rac-N^2-Indan-2-yl-quinoline-2,5-diamine]
3: COc1cccc2c1C(Nc1ccc3c(NC(=O)Cc4ccc(Cl)cc4)cccc3n1)CC2 (racemic) [Example 57]
Ordering criterion: Ki; begin with the maximum. Respond with an ordered listing of the labels, as requested. 2, 1, 3

I: O=S(=O)(Nc1cccc2nc(N[C@@H]3CCc4ccccc43)ccc12)C1CC1 [Example 17]
II: N=C(NO)c1cccc2nc(N[C@@H]3CCc4ccccc43)ccc12 [Example 28]
III: Nc1cccc2nc(N[C@@H]3CCc4ccccc43)ccc12 [Example 16, (R)—N^2-Indan-1-yl-quinoline-2,5-diamine]
Put these in order: smallest Ki first, largest last. Output spec: labels arranged per the requested ranking. III, II, I

1: c1ccc2c(c1)CC[C@H]2Nc1ccc2c(C3CC3)cccc2n1 [Example 44]
2: O=C(Cc1ccc(F)cc1)Nc1cccc2nc(N[C@@H]3CCc4ccccc43)ccc12 [Example 45]
Min Ki? 1 | 2 Your choice should be expressed through its label. 2

====

parameter-measured: melting point (°C)

compound	parameter-measured	test-result
O=C(Cc1cccs1)Nc1cccc2nc(N[C@@H]3CCc4ccccc43)ccc12	melting point	163.5
O=C(Cc1ccc(Cl)cc1)Nc1cccc2nc(N[C@@H]3CCc4ccccc43)ccc12	melting point	170
COc1ccc(CC(=O)Nc2cccc3nc(NC4CCc5cccc(OC)c54)ccc23)cc1 (racemic)	melting point	209
CN(C)CC(=O)Nc1cccc2nc(N[C@@H]3CCc4ccccc43)ccc12	melting point	153
COc1cccc2c1C(Nc1ccc3c(NC(=O)Cc4ccc(F)cc4)cccc3n1)CC2 (racemic)	melting point	195
O=C(CC1CCOCC1)Nc1cccc2nc(N[C@@H]3CCc4ccccc43)ccc12	melting point	211

====

parameter-measured: melting point (°C)

compound	test-result
COc1cccc2c1C(Nc1ccc3c(NC(=O)Cc4ccc(Cl)cc4)cccc3n1)CC2 (racemic)	234
ON=C(c1cccc2nc(N[C@@H]3CCc4ccccc43)ccc12)C1CC1	151
N=C(NO)c1cccc2nc(N[C@@H]3CCc4ccccc43)ccc12	200.5
COc1ccc(CC(=O)Nc2cccc3nc(N[C@@H]4CCc5ccccc54)ccc23)cc1	175

====

Target: recombinant human 5-HT5A receptor (Homo sapiens)
Construct: expressed in transfected cells; host or cells: HEK-EBNA (Human Embryonic Kidney-EBNA) cells, transient cDNA expression; membranes used
Test: [3H]LSD radioligand binding assay
Conditions: [3H]LSD (approximately 1 nM), membranes from HEK-EBNA cells transiently expressing 5-HT5A receptors; Ki from IC50 by Cheng-Prussoff equation
parameter-measured: Ki (nM)

Previously resolved entries follow.
molecule	quantity-unit	test-result
C[S+]([O-])CCNc1cccc2nc(N[C@@H]3CCc4ccccc43)ccc12 (stereo partly drawn)	nM	26.5
COc1cccc2c1C(Nc1ccc3c(NC(=O)Cc4ccc(F)cc4)cccc3n1)CC2 (racemic)	nM	11
COc1cccc2c1C(Nc1ccc3c(NCCS(C)(=O)=O)cccc3n1)CO2 (racemic)	nM	29.1
O=C(Cc1cc(F)cc(F)c1)Nc1cccc2nc(N[C@@H]3CCc4ccccc43)ccc12	nM	28.7

a: c1ccc2c(c1)CC[C@H]2Nc1ccc2c(NC3CCOCC3)cccc2n1
b: O=C(Cc1ccc(Cl)cc1)Nc1cccc2nc(NC3CCc4cc(F)ccc43)ccc12 (racemic)
Select the item whose Ki value is smaller, choosing between a and b . Give the chosen item's label as your response. b
